# tgt: CYP2C9 (Homo sapiens (Human))
# Sequence (P11712 whole entry): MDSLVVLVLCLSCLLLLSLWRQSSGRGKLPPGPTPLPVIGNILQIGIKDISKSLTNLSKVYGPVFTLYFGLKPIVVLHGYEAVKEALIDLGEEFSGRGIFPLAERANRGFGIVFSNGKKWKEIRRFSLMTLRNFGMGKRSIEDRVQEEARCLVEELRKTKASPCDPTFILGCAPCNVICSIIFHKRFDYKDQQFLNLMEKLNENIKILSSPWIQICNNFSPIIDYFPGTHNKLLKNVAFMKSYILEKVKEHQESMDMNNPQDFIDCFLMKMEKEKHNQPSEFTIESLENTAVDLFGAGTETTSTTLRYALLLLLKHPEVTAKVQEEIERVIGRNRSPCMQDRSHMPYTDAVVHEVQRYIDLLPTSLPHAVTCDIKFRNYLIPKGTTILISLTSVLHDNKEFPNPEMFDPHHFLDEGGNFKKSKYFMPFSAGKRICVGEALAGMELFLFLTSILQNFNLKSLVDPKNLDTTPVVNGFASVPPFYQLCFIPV
# assay.summary: CYP inhibition in human liver microsomes
# condition.notes: read-out: CYP-2C9; human liver microsomes; probe substrate diclofenac
pIC50: −log10 of the molar value.
measured.metric: pIC50

Task: Query for CYP2C9 (Homo sapiens (Human)): what pIC50 does the record show for "C[C@H](c1ccc(C(F)(F)F)cc1C(F)(F)F)n1cc(NC(=O)c2nnc(-c3cnccn3)s2)cn1" ?
Output: < 4.30

Task: Quick one: "C[C@H](c1ccc(C(F)(F)F)cc1C(F)(F)F)n1cc(NC(=O)c2cc(-c3cnccn3)on2)cn1"
Output: < 4.30

Task: Follow-up item: CC(c1ccc(C(F)(F)F)cc1C(F)(F)F)n1cc(NC(=O)c2nnc(-c3cnccn3)s2)cn1 (centres unmarked)
Output: < 4.30

Task: Same again, this time with "Cc1c(NC(=O)c2cc(-c3ccco3)on2)cnn1Cc1ccc(C(F)(F)F)cc1C(F)(F)F"
Output: < 4.30

Task: Item: "Cc1nn([C@H](C)c2ccc(C(F)(F)F)cc2C(F)(F)F)cc1NC(=O)c1cc(-c2ccccn2)on1"
Output: 5.60

Where do the numbers come from? From patent US20240124434A1.
